// data source = PubChem BioAssay AID1213

Target: G-protein coupled estrogen receptor 1 (Homo sapiens) (UniProt Q99527)
Test: GPR30 agonists and antagonists by calcium flux, primary screen, HL-60 cells, Indo-1 fluorescence, 10 µM (AID 1213)
Conditions: Indo-1 calcium mobilization, at 10 µM, active compounds read high
Results filed as inconclusive are left out.
Measure Name: calcium mobilization (agonist) (%)
Give the quantity in %, number only.

Solved entries:
* CC(=O)c1ccc2c(c1)C1C(Cl)C(Sc3ccccc3[N+](=O)[O-])CC1C(c1ccccc1)N2 (stereo not drawn) | 0
* Cc1cc(C)cc(OCC(=O)Nc2ccc(N3CCCC3)cc2)c1 | 0
* COc1ccc(NC(=O)C(c2ccccc2)N(C)C(=O)c2ccc(=O)[nH]c2)cc1 (stereo not drawn) | 0
* CC(C)C1Nc2c(O)cc(Cl)c([N+](=O)[O-])c2C2C=CCC21 (stereo not drawn) | 100

Okay, now this compound:
(Q) Reported calcium mobilization (agonist) for G-protein coupled estrogen receptor 1 (Homo sapiens) (UniProt Q99527), given O=C(O)c1ccc2c(c1)[C@@H]1C=CC[C@@H]1[C@H](c1ccccn1)N2 ?
(A) 0
